Values were extracted from patent US20110059504A1.

- experimentalSystem: T1, human myostatin (human, UniProt O14793 267-375, biotinylated in selections and radioactive assays (site not stated))
- T1 construct: Phage ELISA used both unbiotinylated and biotinylated myostatin; also called biotinylated human myostatin; myostatin-biotin
- T1 sequence (looked up): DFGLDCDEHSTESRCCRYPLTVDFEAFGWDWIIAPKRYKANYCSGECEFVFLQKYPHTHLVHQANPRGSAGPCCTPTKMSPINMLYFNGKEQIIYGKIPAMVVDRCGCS
- methodNotes: radioactive equilibrium binding assay
testReadout: B max (%)
Give a bare numeral; the unit % is implied.

[
  {
    "binder": "39633-F5 (I3Y, M83I) (designed binder, group M1-A50; V91L, I3Y, M83I) MTYPEIIIKVRGTQVVGSDMTVIVEFTNPFKETLRSVWVHLDGPGVTRPMKKMFREIPPKTTVQWEEVVRPWVSGHRKLIASIRTQYLIHLYGELDVQIQRRDYKDDDDK",
    "testReadout": "B max",
    "quantityUnit": "%",
    "observedMeasurement": 69.7
  }
]

Please turn your attention to the following entry.
Recorded B max (binder 39973-F10 (designed binder, group M1-A) MTIPEIIIKVRGTQVVGSDMTVIVEFTNPLKETLRNVWVHLDGPGVTRPMKKMFATIPPYLPVQWEEVVRPWVSGHRKLIASMPQLIHLHVYGELDVQIQRRDYKDDDDK ): 68
